- measurement-conditions: rat, in vivo, sc, 50 mg/kg
e = 2'-O-(2-methoxyethyl) (MOE); d = 2'-deoxy (DNA)
endpoint-name: RBC

Dear colleague, please send me the reported RBC for ISIS 416825: 5-10-5 MOE gapmer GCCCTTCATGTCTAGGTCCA (sugars from the 5' end e5 d10 e5, backbone and methylation of C not given here) when you can.
2

Dear colleague, please send me the reported RBC for ISIS 416999: MOE gapmer, nucleobases 1275 to 1318 of SEQ ID NO: 1 (Table 8) (antisense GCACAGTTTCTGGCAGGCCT; MOE gapmer, wing and gap sizes not given here) when you can.
5

Dear colleague, please send me the reported RBC for ISIS 416925: MOE gapmer, nucleobases 1275 to 1318 of SEQ ID NO: 1 (Table 8) (antisense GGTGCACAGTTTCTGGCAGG; MOE gapmer, wing and gap sizes not given here) when you can.
6

Dear colleague, please send me the reported RBC for ISIS 416892: 3-14-3 MOE gapmer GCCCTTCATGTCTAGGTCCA (sugars from the 5' end e3 d14 e3, backbone and methylation of C not given here) when you can.
12

Dear colleague, please send me the reported RBC for ISIS 416826: 5-10-5 MOE gapmer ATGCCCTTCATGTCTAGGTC (sugars from the 5' end e5 d10 e5, backbone and methylation of C not given here) when you can.
5

Dear colleague, please send me the reported RBC for ISIS 417003: MOE gapmer, nucleobases 1275 to 1318 of SEQ ID NO: 1 (Table 8) (antisense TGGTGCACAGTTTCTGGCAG; MOE gapmer, wing and gap sizes not given here) when you can.
11

###

- System: human Factor 11 mRNA
- test-summary: Dose-dependent inhibition of human Factor 11 in HepG2 cells, electroporation 0.7-20 uM (Example 4)
- Type: cell-based
- measurement-conditions: 20 μM, relative to untreated control cells
Strand notation (5' to 3'): a small letter for the sugar, then the base; units joined by * are phosphorothioate-linked, units joined directly phosphodiester-linked; [ ] holds rarer units or linkages, { } end groups; capitals alone tell only the bases. e = 2'-O-(2-methoxyethyl) (MOE); [5mC] = 5-methylcytosine; d = 2'-deoxy (DNA)
Consider the following substances; for each one, report its percent inhibition of Factor 11 at 20 μM.
Answer in %, number only, no unit symbol.

Dear colleague, please send me the reported percent inhibition of Factor 11 at 20 μM for 417002 (antisense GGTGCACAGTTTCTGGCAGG; 2-13-5 gapmer chemistry, further chemistry not given here) [compound 417002] when you can.
91

Dear colleague, please send me the reported percent inhibition of Factor 11 at 20 μM for 416850 (antisense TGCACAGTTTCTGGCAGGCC; 5-10-5 gapmer, further chemistry not given here) [compound 416850] when you can.
91

Dear colleague, please send me the reported percent inhibition of Factor 11 at 20 μM for 413467 (antisense eG*eG*eT*e[5mC]*e[5mC]*dA*d[5mC]*dA*dT*dA*dA*dA*dT*dG*dT*e[5mC]*eT*eT*eT*eG) [compound 413467] when you can.
89

Dear colleague, please send me the reported percent inhibition of Factor 11 at 20 μM for 416878 (antisense eG*eG*eT*d[5mC]*d[5mC]*dA*d[5mC]*dA*dT*dA*dA*dA*dT*dG*dT*d[5mC]*dT*eT*eT*eG) [compound 416878] when you can.
85

###

Consider the following substances; for each one, report its % inhibition.
- Test system: human Factor 11 mRNA
- test-summary: Antisense inhibition of human Factor 11 in HepG2 cells, lipofectin, 75 nM (Example 1)
- Type: cell-based
- measurement-conditions: 75 nM antisense oligonucleotide, ~24 h, relative to untreated control cells, gapmers targeted to SEQ ID NO: 1
Strand notation (5' to 3'): a small letter for the sugar, then the base; units joined by * are phosphorothioate-linked, units joined directly phosphodiester-linked; [ ] holds rarer units or linkages, { } end groups; capitals alone tell only the bases. e = 2'-O-(2-methoxyethyl) (MOE); [5mC] = 5-methylcytosine; d = 2'-deoxy (DNA)
The reply should read as a number followed by its unit.

Dear colleague, please send me the reported % inhibition for 412215 (antisense eA*eT*eT*e[5mC]*eT*dT*dT*dG*dG*dG*d[5mC]*d[5mC]*dA*dT*dT*e[5mC]*e[5mC]*eT*eG*eG) [compound 412215] when you can.
81%

Dear colleague, please send me the reported % inhibition for 412263 (antisense eT*eG*eA*eA*eA*dG*d[5mC]*dT*dA*dT*dG*dT*dG*dG*dT*eG*eA*e[5mC]*eA*eA) [compound 412263] when you can.
33%

Dear colleague, please send me the reported % inhibition for 413472 (antisense eT*eG*eG*eG*eT*dG*dT*dG*d[5mC]*dT*dT*d[5mC]*dA*dG*dT*eA*eG*eA*e[5mC]*eA) [compound 413472] when you can.
99%

###

Consider the following substances; for each one, report its hemoglobin.
- test-summary: Hematology assays in cynomolgus monkeys (Example 45)
- Format: in vivo
- measurement-conditions: day 78; escalating dose regimen
Answer in g/dL, number only, no unit symbol.

Dear colleague, please send me the reported hemoglobin for ISIS 416858: MOE gapmer, nucleobases 1275 to 1318 of SEQ ID NO: 1 (Table 8) (antisense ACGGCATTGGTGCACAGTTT; MOE gapmer, wing and gap sizes not given here) when you can.
12.4

Dear colleague, please send me the reported hemoglobin for ISIS 416850: MOE gapmer, nucleobases 1275 to 1318 of SEQ ID NO: 1 (Table 8) (antisense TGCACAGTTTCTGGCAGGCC; MOE gapmer, wing and gap sizes not given here) when you can.
12.2

Dear colleague, please send me the reported hemoglobin for ISIS 416838: MOE gapmer, nucleobases 1018 to 1042 of SEQ ID NO: 1 (Table 6) (antisense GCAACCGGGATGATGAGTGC; MOE gapmer, wing and gap sizes not given here) when you can.
12.5

Dear colleague, please send me the reported hemoglobin for ISIS 417002: MOE gapmer, nucleobases 1275 to 1318 of SEQ ID NO: 1 (Table 8) (antisense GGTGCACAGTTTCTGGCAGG; MOE gapmer, wing and gap sizes not given here) when you can.
12.4

Dear colleague, please send me the reported hemoglobin for ISIS 416864: MOE gapmer, nucleobases 1275 to 1318 of SEQ ID NO: 1 (Table 8) (antisense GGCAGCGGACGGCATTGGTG; MOE gapmer, wing and gap sizes not given here) when you can.
11.9

###

Consider the following substances; for each one, report its WBC.
- measurement-conditions: rat, in vivo, sc, 50 mg/kg
e = 2'-O-(2-methoxyethyl) (MOE); d = 2'-deoxy (DNA)

Dear colleague, please send me the reported WBC for ISIS 412224: 5-10-5 MOE gapmer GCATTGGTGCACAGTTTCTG (sugars from the 5' end e5 d10 e5, backbone and methylation of C not given here) when you can.
20 10^3/μL

Dear colleague, please send me the reported WBC for ISIS 413481: 5-10-5 MOE gapmer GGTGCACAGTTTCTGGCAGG (sugars from the 5' end e5 d10 e5, backbone and methylation of C not given here) when you can.
14 10^3/μL

Dear colleague, please send me the reported WBC for ISIS 416851: MOE gapmer, nucleobases 1275 to 1318 of SEQ ID NO: 1 (Table 8) (antisense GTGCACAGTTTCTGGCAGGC; MOE gapmer, wing and gap sizes not given here) when you can.
11 10^3/μL

###

- test-summary: Liver function, ALT, AST, bilirubin in cynomolgus monkeys (Example 46)
- Format: in vivo
- measurement-conditions: Day −14; plasma
Strand notation (5' to 3'): a small letter for the sugar, then the base; units joined by * are phosphorothioate-linked, units joined directly phosphodiester-linked; [ ] holds rarer units or linkages, { } end groups; capitals alone tell only the bases. e = 2'-O-(2-methoxyethyl) (MOE); [5mC] = 5-methylcytosine; d = 2'-deoxy (DNA)
Consider the following substances; for each one, report its Bilirubin.
The reply should read as a number followed by its unit.

Dear colleague, please send me the reported Bilirubin for ISIS 445522: 5-8-5 or 6-8-6 MOE microwalk gapmer (Table 44) (antisense eG*e[5mC]*eA*e[5mC]*eA*dG*dT*dT*dT*d[5mC]*dT*dG*dG*e[5mC]*eA*eG*eG*e[5mC]) when you can.
0.24 mg/dL

Dear colleague, please send me the reported Bilirubin for ISIS 445531: 5-8-5 or 6-8-6 MOE microwalk gapmer (Table 44) (antisense eG*eG*e[5mC]*eA*eT*dT*dG*dG*dT*dG*d[5mC]*dA*d[5mC]*eA*eG*eT*eT*eT) when you can.
0.22 mg/dL

Dear colleague, please send me the reported Bilirubin for ISIS 449708: 3-8-3, 4-8-4, 2-10-2, 3-10-3 or 4-10-4 MOE microwalk gapmer (Table 46) (antisense eA*e[5mC]*eA*dG*dT*dT*dT*d[5mC]*dT*dG*dG*e[5mC]*eA*eG) when you can.
0.27 mg/dL

Dear colleague, please send me the reported Bilirubin for ISIS 416850: MOE gapmer, nucleobases 1275 to 1318 of SEQ ID NO: 1 (Table 8) (antisense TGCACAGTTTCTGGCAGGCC; MOE gapmer, wing and gap sizes not given here) when you can.
0.26 mg/dL

Dear colleague, please send me the reported Bilirubin for ISIS 449709: 3-8-3, 4-8-4, 2-10-2, 3-10-3 or 4-10-4 MOE microwalk gapmer (Table 46) (antisense eG*e[5mC]*eA*e[5mC]*dA*dG*dT*dT*dT*d[5mC]*dT*dG*dG*d[5mC]*eA*eG*eG*e[5mC]) when you can.
0.24 mg/dL
